- System: Vero cells
- procedureSummary: Cytotoxicity, Vero cells, Alamar Blue
- Format: cell-based
- experimentalContext: 25 μM, 20 hours
// boundary case: Cell viability (% of control) equal to 50% maps to -1; strictly smaller maps to 1

These solved cases illustrate the format of a correct answer.
INSERT INTO measurements (structure, assignedclass) VALUES
  ('Cc1c(NC(=O)OC(C)(C)C)ccc2nc(N[C@@H](CCc3ccccc3)C(=O)NCc3ccccn3)oc(=O)c12', -1),
  ('Cc1c(NC(=O)OC(C)(C)C)ccc2nc(N3C[C@H](OCc4ccccc4)C[C@H]3C(=O)N(C)CCc3cccnc3)oc(=O)c12', -1),
  ('Cc1c(NC(=O)OC(C)(C)C)ccc2nc(N[C@@H](CC(C)C)C(=O)NCc3cccnc3)oc(=O)c12', -1),
  ('Cc1c(NC(=O)OC(C)(C)C)ccc2nc(N3Cc4ccccc4C[C@H]3C(=O)NCc3cccnc3)oc(=O)c12', 1),
  ('Cc1c(NC(=O)OC(C)(C)C)ccc2nc(N[C@@H](CCc3ccccc3)C(=O)N(C)Cc3ccccn3)oc(=O)c12', -1);

Please check: Cell viability (% of control) for Cc1c(NC(=O)OC(C)(C)C)ccc2nc(NC(C)(C)C(=O)N(C)CCc3ccncc3)oc(=O)c12 , strictly under 50% or not?
-1

Please check: Cell viability (% of control) for Cc1c(NC(=O)OC(C)(C)C)ccc2nc(N[C@@H](C)C(=O)N(C)CCc3ccccn3)oc(=O)c12 , strictly under 50% or not?
-1

Please check: Cell viability (% of control) for CCOc1ccc(C(=O)Nc2ccc3nc(NC(C)(C)C(=O)N(C)CCc4ccccn4)oc(=O)c3c2C)cc1 , strictly under 50% or not?
1

Please check: Cell viability (% of control) for Cc1c(NC(=O)c2ccccc2COC(=O)c2ccccc2)ccc2nc(NC(C)(C)C(=O)N(C)CCc3ccccn3)oc(=O)c12 , strictly under 50% or not?
1

Please check: Cell viability (% of control) for Cc1c(NC(=O)c2cccc(OC(F)(F)F)c2)ccc2nc(NC(C)(C)C(=O)N(C)CCc3ccccn3)oc(=O)c12 , strictly under 50% or not?
1

Please check: Cell viability (% of control) for Cc1c(NC(=O)OC(C)(C)C)ccc2nc(N3Cc4ccccc4C[C@H]3C(=O)N(C)CCc3ccccn3)oc(=O)c12 , strictly under 50% or not?
-1

###

- System: HSV-1
- procedureSummary: Antiviral activity, HSV-1 in Vero cells, plaque method
- Type: cell-based
- experimentalContext: Human alphaherpesvirus 1, 20 hours, 90% inhibition of plaque formation
Exercise: for every item that follows, state its recorded EC90.
One number for each entry, in µM.

Reference set (2 entries):
INSERT INTO measurements (compound, studysystem, reportedresult) VALUES
  ('Cc1c(NC(=O)OC(C)(C)C)ccc2nc(N[C@H](C(=O)NCc3ccccn3)C(C)(C)C)oc(=O)c12 [Compound No.32]', 'HSV-1', 21.5),
  ('Cc1c(NC(=O)OC(C)(C)C)ccc2nc(N3C[C@H](OCc4ccccc4)C[C@H]3C(=O)NCc3ccncc3)oc(=O)c12 [Compound No.111]', 'HSV-1', 7.8);

Next:
# input compound: Cc1c(NC(=O)OC(C)(C)C)ccc2nc(N[C@H](C)C(=O)N(C)CCc3ccccn3)oc(=O)c12 [Compound No.132] ; wanted: its EC90
15.8

###

Here's a batch of compounds along with measured pIC50 for UniProtKB P10210.
Sequence (P10210 1-247): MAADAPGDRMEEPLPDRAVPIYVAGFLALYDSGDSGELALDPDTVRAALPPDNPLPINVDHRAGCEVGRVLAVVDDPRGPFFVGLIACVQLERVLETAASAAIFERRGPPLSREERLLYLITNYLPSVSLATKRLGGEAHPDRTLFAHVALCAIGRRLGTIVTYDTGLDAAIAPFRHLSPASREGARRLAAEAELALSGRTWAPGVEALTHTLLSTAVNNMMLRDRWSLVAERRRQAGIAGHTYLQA
Answers are plain numbers, as −log10 of the molar value.

Reference set (3 entries):
INSERT INTO results (structure, reportedresult) VALUES
  ('Cc1c(NC(=O)COCc2ccccc2)ccc2nc(NC(C)(C)C(=O)N(C)CCc3ccccn3)oc(=O)c12', 5.68),
  ('Cc1c(NC(=O)OC(C)(C)C)ccc2nc(N[C@H](C(=O)NCCc3ccccn3)C(C)C)oc(=O)c12', 5.49),
  ('Cc1c(NC(=O)OC(C)(C)C)ccc2nc(N[C@H](C(=O)N(C)Cc3ccccn3)C(C)(C)C)oc(=O)c12', 4.57);

Next:
Form field: pIC50 recorded for Cc1c(NC(=O)OC(C)(C)C)ccc2nc(NC3(C(=O)N(C)CCc4ccccn4)CCCCC3)oc(=O)c12 with UniProtKB P10210 (enter value)
6.00

###

- Test system: Vero cells
- procedureSummary: Cytotoxicity, Vero cells, Alamar Blue
- Type: cell-based
- experimentalContext: 25 μM, 20 hours
Exercise: for every item that follows, state its recorded Cell viability (% of control).
Answers are plain numbers, in %.

INSERT INTO assay_data (structure, reportedresult) VALUES
  ('Cc1c(NC(=O)c2cccc(C(F)(F)F)c2)ccc2nc(NC(C)(C)C(=O)N(C)CCc3ccccn3)oc(=O)c12', 19.7);

Each compound below has a recorded value; state its Cell viability (% of control).
1. Cc1c(NC(=O)c2cccc(F)c2)ccc2nc(NC(C)(C)C(=O)N(C)CCc3ccccn3)oc(=O)c12
2. Cc1c(NC(=O)C(C)(C)C)ccc2nc(NC(C)(C)C(=O)N(C)CCc3ccccn3)oc(=O)c12
3. Cc1c(NC(=O)c2cccc(Br)c2)ccc2nc(NC(C)(C)C(=O)N(C)CCc3ccccn3)oc(=O)c12
4. Cc1c(NC(=O)OC(C)(C)C)ccc2nc(N[C@@H](Cc3ccccc3)C(=O)N(C)CCc3ccncc3)oc(=O)c12
5. Cc1c(NC(=O)COCc2ccccc2)ccc2nc(NC(C)(C)C(=O)N(C)CCc3ccccn3)oc(=O)c12
6. Cc1c(NC(=O)OC(C)(C)C)ccc2nc(N3CCC[C@H]3C(=O)NCCc3ccccn3)oc(=O)c12
7. Cc1ccc(C(=O)Nc2ccc3nc(NC(C)(C)C(=O)N(C)CCc4ccccn4)oc(=O)c3c2C)cc1

1. 54.6
2. 81.8
3. 21.5
4. 76.0
5. 93.1
6. 92.6
7. 63.6

Each compound below has a recorded value; state its Cell viability (% of control).
1. Cc1c(NC(=O)c2ccccc2[N+](=O)[O-])ccc2nc(NC(C)(C)C(=O)N(C)CCc3ccccn3)oc(=O)c12
2. Cc1c(NC(=O)OC(C)(C)C)ccc2nc(N3Cc4ccccc4C[C@H]3C(=O)NCCc3ccccn3)oc(=O)c12

1: 96.8; 2: 51.3

Each compound below has a recorded value; state its Cell viability (% of control).
1. CCc1ccc(C(=O)Nc2ccc3nc(NC(C)(C)C(=O)N(C)CCc4ccccn4)oc(=O)c3c2C)cc1
2. Cc1c(NC(=O)c2ccc3ccccc3c2)ccc2nc(NC(C)(C)C(=O)N(C)CCc3ccccn3)oc(=O)c12
3. COc1cccc(C(=O)Nc2ccc3nc(NC(C)(C)C(=O)N(C)CCc4ccccn4)oc(=O)c3c2C)c1
4. Cc1c(NC(=O)OC(C)(C)C)ccc2nc(N3CCCC[C@H]3C(=O)N(C)CCc3ccncc3)oc(=O)c12

1. 65.8
2. 71.8
3. 75.5
4. 97.9

###

- Test system: HSV-1
- procedureSummary: Antiviral activity, HSV-1 in Vero cells, plaque method
- Assay type: cell-based
- experimentalContext: Human alphaherpesvirus 1, 20 hours, 90% inhibition of plaque formation
// boundary case: EC90 equal to 6 µM maps to false (0); strictly smaller maps to true (1)

These solved cases illustrate the format of a correct answer.
INSERT INTO assay_data (structure, studysystem, assignedclass) VALUES
  ('Cc1c(NC(=O)OC(C)(C)C)ccc2nc(N3Cc4ccccc4C[C@H]3C(=O)NCc3ccccn3)oc(=O)c12', 'HSV-1', 'true (1)'),
  ('Cc1c(NC(=O)OC(C)(C)C)ccc2nc(NC(C)(C)C(=O)NCCc3ccccn3)oc(=O)c12', 'HSV-1', 'false (0)'),
  ('Cc1c(NC(=O)OC(C)(C)C)ccc2nc(N(C)[C@@H](C)C(=O)NCc3cccnc3)oc(=O)c12', 'HSV-1', 'false (0)'),
  ('Cc1c(NC(=O)c2ccc(-c3ccccc3)cc2)ccc2nc(NC(C)(C)C(=O)N(C)CCc3ccccn3)oc(=O)c12', 'HSV-1', 'true (1)');

Please check: EC90 for Cc1c(NC(=O)OC(C)(C)C)ccc2nc(N[C@@H](CCc3ccccc3)C(=O)N(C)CCc3cccnc3)oc(=O)c12 , strictly under 6 µM or not?
true (1)

Please check: EC90 for Cc1c(NC(=O)c2sccc2Cl)ccc2nc(NC(C)(C)C(=O)N(C)CCc3ccccn3)oc(=O)c12 , strictly under 6 µM or not?
false (0)

Please check: EC90 for Cc1c(NC(=O)OC(C)(C)C)ccc2nc(N(C)[C@@H](Cc3ccccc3)C(=O)N(C)CCc3ccncc3)oc(=O)c12 , strictly under 6 µM or not?
false (0)

Please check: EC90 for Cc1c(NC(=O)OC(C)(C)C)ccc2nc(N(C)[C@@H](Cc3ccccc3)C(=O)N(C)Cc3ccccn3)oc(=O)c12 , strictly under 6 µM or not?
false (0)

Please check: EC90 for Cc1c(NC(=O)CCCNC(=O)OC(C)(C)C)ccc2nc(NC(C)(C)C(=O)N(C)CCc3ccccn3)oc(=O)c12 , strictly under 6 µM or not?
false (0)

Please check: EC90 for Cc1c(NC(=O)OC(C)(C)C)ccc2nc(N[C@@H](CCc3ccccc3)C(=O)N(C)CCc3ccccn3)oc(=O)c12 , strictly under 6 µM or not?
true (1)

Taken from patent US20040116420A1.
